The origin of these recorded values is patent US20220202905A1.

- ASSAYED TARGET: T1, PAC1 receptor (UniProt P41586 21-468, limits assumed)
- T1 sequence (looked up): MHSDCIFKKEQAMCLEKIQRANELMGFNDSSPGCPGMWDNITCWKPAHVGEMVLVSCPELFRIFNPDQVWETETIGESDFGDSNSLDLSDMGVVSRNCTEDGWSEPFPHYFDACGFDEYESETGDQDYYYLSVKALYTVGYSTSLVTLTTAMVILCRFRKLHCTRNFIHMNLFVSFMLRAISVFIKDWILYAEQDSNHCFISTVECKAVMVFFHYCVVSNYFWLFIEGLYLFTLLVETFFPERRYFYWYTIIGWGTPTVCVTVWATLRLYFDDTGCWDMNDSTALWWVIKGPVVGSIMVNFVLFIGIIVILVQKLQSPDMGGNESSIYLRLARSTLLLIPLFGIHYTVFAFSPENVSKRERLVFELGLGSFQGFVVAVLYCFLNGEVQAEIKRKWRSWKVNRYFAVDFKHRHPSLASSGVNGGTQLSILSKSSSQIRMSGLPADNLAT
- ASSAY PROTOCOL: cell-based or functional assay
Measured EC50 (PAC1R), cAMP inducing effect accompanies every entry in the list below.
Answers without a unit are incomplete; give the number and then its unit.

In the examples that follow, each entry is paired with its recorded EC50 (PAC1R), cAMP inducing effect.
HSXGIFTXSYSRYRKQLAVKKYLAAVL (Tz (aspartic acid with carboxyl group replaced by tetrazole) at positions 3 and 8; C-terminal amide (NH2)) [Peptide 7] : 0.112 nM
HSXGIFTXSYSRYRKQXAVKKYLAAVL (Tz (aspartic acid with carboxyl group replaced by tetrazole) at positions 3 and 8; norleucine at position 17; C-terminal amide (NH2)) [Peptide 6] : 0.079 nM
HSXGIFTXSYSRYRKQXAVKKYLAAVL (N-terminal acetyl (Ac-); Tz (aspartic acid with carboxyl group replaced by tetrazole) at positions 3 and 8; norleucine at position 17; C-terminal amide (NH2)) [Peptide 8] : 0.072 nM

We now examine a further binder.
Q: For HSXGIFTXSYSRYRKQLAVKKYLAAVL (N-terminal acetyl (Ac-); Tz (aspartic acid with carboxyl group replaced by tetrazole) at positions 3 and 8; C-terminal amide (NH2)) [Peptide 9] , write its EC50 (PAC1R), cAMP inducing effect.
Ans: 0.063 nM
